# assayed_system: HLA-DR7 (DRB1*0701) (Homo sapiens, UniProt P01903+P01911, A100R/A102G/A103Q/D57E/D86V/E43K/F76Y/K127E/L162R/M171V/P40G/Q125H/Q99D/R33Q/R42Y/R54Q/S133A/S66F/T210M/V115G/Y107V/Y59L/Y89S)
# assay_details: biochemical
# setup_conditions: competition with biotinylated tracer; 3 independent experiments; read-out: Binding activity DR7 (IC50)
pIC50: −log10 of the molar value. No end group written: not given here.
Entries and their pIC50

| item_sequence | censoring_qualifier | pIC50 |
| --- | --- | --- |
| EGWEPDDDPIEEHKK [65-79, E G W E P D D D P I E E H K K] | < | 4.00 |
| DPIEEHKKHSSGCAF [72-86, D P I E E H K K H S S G C A F] | < | 4.00 |
| ERMAEAGFIHCPTEN [36-50, E R M A E A G F I H C P T E N] | = | 4.77 |
| HRISTFKNWPFLEGC [peptide 17-31, H R I S T F K N W P F L E G C] | = | 7.74 |
| KEFEETAKKVRRAIE [122-136, K E F E E T A K K V R R A I E] | = | 4.70 |
| KELEGWEPDDDPIEE [62-76, K E L E G W E P D D D P I E E] | < | 4.00 |
| MGAPTLPPAWQPFLK [1-15, M G A P T L P P A W Q P F L K] | < | 4.00 |

---

Each entry below lists one item and its recorded IC50 value.
# assayed_system: HLA-DRB4 (DRB4*0101) (Homo sapiens, UniProt P01903+P13762, G164S)
# assay_details: Competitive HLA II/peptide binding assay, HLA-DRB4
# setup_conditions: competition with biotinylated tracer; 3 independent experiments
No end group written: not given here.

| item_sequence | IC50 |
| --- | --- |
| FCFKELEGWEPDDDP [59-73, F C F K E L E G W E P D D D P] | > 100 µM |
| KELEGWEPDDDPIEE [62-76, K E L E G W E P D D D P I E E] | > 100 µM |
| DPIEEHKKHSSGCAF [72-86, D P I E E H K K H S S G C A F] | > 100 µM |
| LKLDRERAKNKIAKE [102-116, L K L D R E R A K N K I A K E] | > 100 µM |

---

# assayed_system: HLA-DR11 (DRB1*1101) (Homo sapiens, UniProt P01903+P01911, A100R/A169T/A87E/I96F/K41T/L162R/M171V/P40S/Q125H/Q178H/Q39Y/Q99D/R42S/S66Y/T262R/V115G/W38E)
# assay_details: biochemical
# setup_conditions: competition with biotinylated tracer; 3 independent experiments; read-out: Binding activity DR11 (IC50)
No end group written: not given here.

| item_sequence | IC50 |
| --- | --- |
| KELEGWEPDDDPIEE [62-76, K E L E G W E P D D D P I E E] | > 100 µM |
| DPIEEHKKHSSGCAF [72-86, D P I E E H K K H S S G C A F] | > 100 µM |
| EGWEPDDDPIEEHKK [65-79, E G W E P D D D P I E E H K K] | > 100 µM |

Every entry's value here was drawn from patent US9687539B2.
